Target: Adenosine receptor A2a (Homo sapiens)
Sequence (P29274 whole entry): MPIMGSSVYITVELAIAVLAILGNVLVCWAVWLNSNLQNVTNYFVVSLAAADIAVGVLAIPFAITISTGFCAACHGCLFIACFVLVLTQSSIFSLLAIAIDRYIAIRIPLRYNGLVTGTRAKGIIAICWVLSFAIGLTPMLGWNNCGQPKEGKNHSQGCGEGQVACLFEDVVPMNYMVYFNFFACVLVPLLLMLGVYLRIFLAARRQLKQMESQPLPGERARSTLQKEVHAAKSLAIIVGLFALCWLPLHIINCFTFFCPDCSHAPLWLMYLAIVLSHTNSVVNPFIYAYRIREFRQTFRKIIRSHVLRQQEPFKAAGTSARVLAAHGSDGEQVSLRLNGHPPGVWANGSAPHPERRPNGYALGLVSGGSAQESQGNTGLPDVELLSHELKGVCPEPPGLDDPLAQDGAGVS
Test: Antagonist activity at human adenosine A2a receptor expressed in CHOK1 cells assessed as inhibition of NECA/forskolin-induced cAMP accumulation incubated for 15 mins prior to NECA/forskolin challenge measured after 5.5 to 6 hrs by beta-galactosidase reporter gene assay
pKi: −log10 of the molar value.
Assign class by pKi: not lower than 8 means 1; lower than 8 means 0.

{"columns": ["compound", "test_target", "classification"],
 "data": [
  ["Nc1nc(-c2ccccc2)nc2sccc12", "Adenosine receptor A2a (Homo sapiens)", 0],
  ["Nc1nc(-c2ccccc2)nc2sc(Cc3ccccc3)cc12", "Adenosine receptor A2a (Homo sapiens)", 0],
  ["Nc1nc(-c2cccc(Cl)n2)nc2sc(Cc3ccccc3)cc12", "Adenosine receptor A2a (Homo sapiens)", 0],
  ["Cc1ccc(-c2nc(N)c3ccsc3n2)o1", "Adenosine receptor A2a (Homo sapiens)", 0],
  ["Nc1nc(-c2ccccc2)nc2sc(CCc3ccccc3)cc12", "Adenosine receptor A2a (Homo sapiens)", 0],
  ["Cc1ccc(-c2nc(N)c3cc(C(C)c4ccccc4)sc3n2)o1 (centres undefined)", "Adenosine receptor A2a (Homo sapiens)", 0],
  ["Nc1nc(-c2ncco2)nc2sc(Cc3ccccc3)cc12", "Adenosine receptor A2a (Homo sapiens)", 1],
  ["CC(c1ccccc1)c1cc2c(N)nc(-c3cccc(C#N)c3)nc2s1 (centres undefined)", "Adenosine receptor A2a (Homo sapiens)", 0],
  ["N#Cc1cncc(-c2nc(N)c3cc(Cc4ccccc4)sc3n2)c1", "Adenosine receptor A2a (Homo sapiens)", 0],
  ["Cc1ccc(-c2nc(N)c3cc(CCc4ccccc4)sc3n2)o1", "Adenosine receptor A2a (Homo sapiens)", 0],
  ["Nc1nc(-c2ccncc2)nc2sc(Cc3ccccc3)cc12", "Adenosine receptor A2a (Homo sapiens)", 0],
  ["CC(C)c1ccc(-c2nc(N)c3cc(Cc4ccccc4)sc3n2)o1", "Adenosine receptor A2a (Homo sapiens)", 0],
  ["Cc1csc(-c2nc(N)c3cc(C(C)c4ccccc4)sc3n2)n1 (centres undefined)", "Adenosine receptor A2a (Homo sapiens)", 0],
  ["Cc1ccc(-c2nc(N)c3cc(Cc4ccccc4Cl)sc3n2)o1", "Adenosine receptor A2a (Homo sapiens)", 1],
  ["Nc1nc(-c2ccccn2)nc2sc(Cc3ccccc3)cc12", "Adenosine receptor A2a (Homo sapiens)", 0],
  ["Cc1ccc(-c2nc(N)c3cc(-c4ccccc4)sc3n2)o1", "Adenosine receptor A2a (Homo sapiens)", 0],
  ["Cc1ccc(-c2nc(N)c3cc(Cc4ccccc4F)sc3n2)o1", "Adenosine receptor A2a (Homo sapiens)", 1],
  ["N#Cc1cccc(-c2nc(N)c3cc(Cc4ccccc4)sc3n2)n1", "Adenosine receptor A2a (Homo sapiens)", 0]
]}

----------
Assay: Cmax in mouse at 10 mg/kg, po
Type: ADME, organism-based
Set-up: dose 10 mg/kg, route oral
Details: in vivo
observed_property: Cmax (µM)

{"columns": ["entry_smiles", "unit_of_measure", "result"],
 "data": [
  ["Cc1ccc(-c2nc(N)c3cc(Cc4ccccc4)sc3n2)o1", "µM", 5.01]
]}

----------
Experiment: Oral bioavailability in rat at 10 mg/kg
Type: ADME, organism-based
Conditions: in vivo

{"columns": ["entry_smiles", "bioavailability, %"],
 "data": [
  ["Cc1ccc(-c2nc(N)c3cc(Cc4ccccc4)sc3n2)o1", 83]
]}
